test: Volume of distribution at steady state in dog at 3 mg/kg, iv or 5 mg/kg, po; type: ADME, organism-based, Canis lupus familiaris; conditions: in vivo, read-out: Vdss
assay.readout: Vd (L/kg)
The figure you give is taken to be in L/kg; do not add the unit.

- compound: "O=C1NC(=O)[C@](CNC(=O)c2cc3cc(C(F)(F)F)ccc3o2)(C2CC2)N1"
  Vd, L/kg: 0.92

Proceeding to the next compound to report its Vd.
Input line: Recorded Vd for Cn1ccnc1[C@]1(CNC(=O)c2cc3cc(C(F)(F)F)ccc3o2)NC(=O)NC1=O , please?
Output line: 0.52

* * *

test: Solubility of the compound at pH 7.5; assay type: physicochemical; conditions: buffer
assay.readout: solubility (µg/mL)
Could you give me the number in µg/mL? Just the number is fine.

Input line: Look at this compound and give its reported solubility. Cn1ccnc1[C@]1(CNC(=O)c2cc3cc(C(F)(F)F)ccc3o2)NC(=O)NC1=O
Output line: 1740
